B1: minF1; the commonest letter at each place (parent)
chain: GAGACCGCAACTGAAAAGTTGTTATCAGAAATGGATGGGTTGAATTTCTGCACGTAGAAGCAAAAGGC

variants of: B1; assay: fraction ligated after 30 min (ligated reads / total reads); higher = more ligase activity; conditions: with F1*subA RNA substrate (template-directed ligation), 42 °C
Quick rule: fraction ligated of at least 0.06 means 1, below that means -1.

variant-label: T41A
assigned-category: 1

Let's switch to this variant now.
Assess whether reported fraction ligated for A29G G34C sits at 0.06 or higher.
-1

The origin of these recorded values is the supplement of paper PMC6755084.
